# target-of-assay: NADPH oxidase 2 (Homo sapiens)
# experiment-summary: NOX2-dependent H2O2 signal modulators, primary screen, NOX inhibitor project, cell-based, HEK293-NOX2, PMA-stimulated, Amplex Red fluorescence (AID 1159)
# condition-info: 45 min, higher = more signal, called active from +8 up or from −8 down
Activity calls are given as the source filed them.
Parameter: z-score. Scope: all listed entries.
reported-property: z-score

C#CCCCON=C1[C@H]2CCn3c(=O)n(Cc4cc5c(cc4Cl)OCO5)c(=O)n3[C@H]2[C@H](O)[C@@H]2O[C@H]12
-0.331 (inactive)
CCOC(=O)CCN1C(=O)[C@H]2[C@H]3[C@H](O)[C@H](O)CC(=NNC(=O)OCC)[C@H]3CC[C@H]2C1=O
0.415 (inactive)
CCN1C(=O)[C@H]2[C@H]3[C@H](O)[C@H](O)CC(=NOCC=C(C)CCC=C(C)C)[C@@H]3CC[C@H]2C1=O
1.56 (inactive)
COC(=O)[C@@H]1CC[C@H](C)[C@@H](c2ccc(Br)cc2)N1C[C@H](O)CN=[N+]=[N-]
-0.855 (inactive)
CC(CCC(=O)OC[C@H]1O[C@H](C#Cc2ccccc2)C=C[C@@H]1Oc1ccc(C)cc1)=NOC(C)CN1CCCc2nc(C)c(C)cc21 (some centres undefined)
-0.866 (inactive)
CC(CCN1CCCc2nc(C)c(C)cc21)=NO[C@@H](C)c1cn([C@H](CO)Cc2ccccc2)nn1
-0.588 (inactive)
O=C1[C@H]2[C@H]3[C@H](O)[C@H](O)CC(=NO[C@@H]4O[C@H](CO)[C@@H](O)[C@H](O)[C@H]4O)[C@@H]3CC[C@H]2C(=O)N1c1cccc(Oc2ccccc2)c1
0.614 (inactive)
COc1ccc(COC(=O)NN=C2C[C@@H](O)[C@@H](O)[C@@H]3[C@@H]4C(=O)N([C@@H](C)c5ccccc5)C(=O)[C@@H]4CC[C@H]23)cc1
0.947 (inactive)
C[C@H]1CC[C@H]2C(=O)N[C@H](Cc3ccccc3)C(=O)N2[C@@H]1c1ccccc1
0.727 (inactive)

* * *

# Tested on: XIP peptide (Xip251-270)
# experiment-summary: small-molecule binders of XIP peptide, primary screen, biochemical, small-molecule microarray, fluorescence 635/667 nm, 0.5 µg/mL protein (AID 1183)
# condition-info: small-molecule microarray binding, fluorescence 635 nm; higher = more signal
reported-property: composite z-score

C#CCCCON=C1[C@H]2CCn3c(=O)n(Cc4cc5c(cc4Cl)OCO5)c(=O)n3[C@H]2[C@H](O)[C@@H]2O[C@H]12
0.278
COC(=O)[C@H](C)NC(=O)CCC1CC(OC(=O)NCc2ccc3c(c2)OCO3)CC2(CCCC(COC(=O)NCCc3ccc(Cl)cc3)O2)O1 (some centres undefined)
0.375
C=CC[C@@H]1C=C[C@H](ON=C(C)CCN2CCCc3nc(C)c(C)cc32)[C@@H](CO)O1
0.241
CCN1C(=O)[C@H]2[C@H]3[C@H](O)[C@H](O)CC(=NOCC(C)C)[C@H]3CC[C@H]2C1=O
-0.122

* * *

# experiment-summary: anti-His antibody binders, primary screen, artefact control for SMM control protein annotation, biochemical, small-molecule microarray, 635 nm fluorescence (AID 1128);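 note: score merges feature fluorescence with signal-to-noise for each printed compound spot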
# condition-info: anti-His Alexa647 antibody binding, higher = more signal
Everything with composite z-score lower than -0.03 is false (0); everything else, including exactly -0.03, is true (1).

O=C1C[C@@H](O)[C@@H](O)[C@@H]2[C@@H]3C(=O)N(C4CCCCC4)C(=O)[C@@H]3CC[C@@H]12
true (1)
C#CCCCON=C1C[C@@H](O)[C@@H](O)[C@@H]2[C@@H]3C(=O)N(CC)C(=O)[C@@H]3CC[C@H]12
true (1)
CCOC(=O)CCN1C(=O)[C@H]2[C@H]3[C@H](O)[C@H](O)CC(=NNC(=O)OCC)[C@H]3CC[C@H]2C1=O
true (1)
COc1ccc(COC(=O)NN=C2C[C@@H](O)[C@@H](O)[C@@H]3[C@@H]4C(=O)N(Cc5ccc6c(c5)OCO6)C(=O)[C@@H]4CC[C@H]23)cc1
false (0)
C=CC[C@@H]1C=C[C@H](ON=CC[C@@H]2C=C[C@H](OC(C)=O)[C@@H](COC(C)=O)O2)[C@@H](CO)O1
true (1)
CC(C)=NOC[C@@H](O)[C@H]1O[C@@H]2OC(C)(C)O[C@@H]2[C@H]1O
false (0)
O=C1[C@H]2[C@H]3[C@H](O)[C@H](O)CC(=NO[C@@H]4O[C@H](CO)[C@@H](O)[C@H](O)[C@H]4O)[C@H]3CC[C@H]2C(=O)N1c1ccc(F)cc1F
false (0)
COc1ccc(COC(=O)NN=C2C[C@@H](O)[C@@H](O)[C@@H]3[C@@H]4C(=O)N([C@@H](C)c5ccccc5)C(=O)[C@@H]4CC[C@@H]23)cc1
false (0)

* * *

# experiment-summary: small-molecule microarray binders of probe aEGFR, primary screen, biochemical, biotinylated probe, 635/667 nm fluorescence (AID 1097);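 note: probe is a biotinylated anti-EGFR antibody binding compounds printed on slides; score combines fluorescence near 667 nm and signal to noise of each spot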
# condition-info: higher = more signal
A collection of compounds and their measured composite z-score
reported-property: composite z-score

COC(=O)[C@H](C)NC(=O)CCC1CC(OC(=O)NCc2cccc3ccccc23)CC2(CCCC(COC(=O)NCCc3ccccc3OC)O2)O1 (stereo partly drawn)
0.0066
O=C1C=C[C@@H](O)[C@@H]2[C@@H]3C(=O)N(Cc4ccc5c(c4)OCO5)C(=O)[C@@H]3CC[C@@H]12
-0.0731
CC(C)(C)N1C(=O)[C@H]2[C@H]3[C@H](O)[C@H](O)CC(=NOC[C@@H](O)COCc4ccco4)[C@@H]3CC[C@H]2C1=O
-0.141
COC(=O)CC=C[C@@H](C)[C@@H](C=NOC[C@@H](O)[C@H]1O[C@@H]2OC(C)(C)O[C@@H]2[C@H]1O)OC
0.0536
COC(=O)[C@H](C)NC(=O)CCC1CC(OC(=O)NCc2ccc3c(c2)OCO3)CC2(CCCC(COC(=O)NCCC(C)C)O2)O1 (stereo partly drawn)
-0.0858
CCOC(=O)CCN1C(=O)[C@H]2[C@H]3[C@H](O)[C@H](O)CC(=NO[C@@H]4O[C@H](CO)[C@@H](O)[C@H](O)[C@H]4O)[C@H]3CC[C@H]2C1=O
-0.115
COC(=O)CC=C[C@@H](C)[C@@H](C=NOC[C@@H](C)[C@H](OCc1ccccc1)C(C)C)OC
-0.126
CC[C@@H](c1ccccc1)n1c(=O)n2n(c1=O)[C@H]1[C@H](O)[C@@H]3O[C@@H]3C(=NOCc3ccccc3)[C@H]1CC2
-0.0824
CON=C(C)CCN1CCCc2nc(C)c(C)cc21
0.0376
O=C1[C@H]2[C@H]3[C@H](O)[C@H](O)CC(=NO[C@@H]4O[C@H](CO)[C@@H](O)[C@H](O)[C@H]4O)[C@H]3CC[C@H]2C(=O)N1C[C@@H]1CCCO1
-0.0578
CO[C@H]1COC(=O)CC=C[C@H](C)[C@H](OC)COC(=O)[C@@H](C)NC(=O)CC=C[C@@H]1C
-0.0313
CSCC[C@@H]1NC(=O)CC=C[C@@H](C)COC(=O)[C@H](C)COC1=O
0.702
CC(C)=CCCC(C)=CCON=C1C[C@@H](O)[C@@H](O)[C@@H]2[C@@H]3C(=O)N(C4CCCCC4)C(=O)[C@@H]3CC[C@H]12
0.0065

* * *

# experiment-summary: S. cerevisiae growth modulation with rapamycin, primary screen, strain BY4716, OD600, 96 h (AID 1091)
# condition-info: higher = more signal, called active from +8 up or from −8 down
reported-property: z-score

O=C1CCCC=C1C(O)C1CCCCC1 (stereo unspecified)
-0.478
COC(=O)[C@H](C)NC(=O)CCC1CC(OC(=O)NCCc2ccc(F)cc2)CC2(CCCC(COC(=O)NCC3CCCCC3)O2)O1 (stereo partly specified)
0.689
C[C@@H](c1ccccc1)N1C(=O)[C@H]2[C@H]3[C@H](O)[C@H](O)CC(=NNC(=O)OCc4ccccc4)[C@@H]3CC[C@H]2C1=O
5.24
CCOC(=O)[C@H](Cc1ccccc1)NC(=O)CCC1CC(OC(=O)NCCc2ccc(F)cc2)CC2(CCCC(COC(=O)NCCOc3ccccc3)O2)O1 (stereo partly specified)
0.0763
CO[C@H]1COC(=O)[C@H](C)COC(=O)[C@H](C)NC(=O)CC=C[C@H]1C
-0.253
COC(=O)[C@H](C)NC(=O)CCC1CC(OC(=O)NCc2ccc3c(c2)OCO3)CC2(CCCC(COC(=O)NCc3ccccc3)O2)O1 (stereo partly specified)
0.274
COc1ccc2c(c1)O[C@@H](c1cccc(C(F)(F)F)c1)[C@H](O)C2=O
-0.489
COC(=O)[C@H](C)NC(=O)CCC1CC(OC(=O)NCc2cccc3ccccc23)CC2(CCCC(COC(=O)NCc3ccccc3)O2)O1 (stereo partly specified)
-0.936
CON(C)C(=O)c1nnc2c(n1)[nH]c1ccccc12
-0.298
COC(=O)CC=C[C@@H](C)[C@@H](C=NOC(C)CN1CCCc2nc(C)c(C)cc21)NS(=O)(=O)c1ccc(C)cc1 (stereo partly specified)
-0.0152
CO[C@@H]1COC(=O)CC=C[C@H](C)[C@H](OC)COC(=O)[C@@H]2CCCN2C(=O)CC=C[C@H]1C
-0.249
CC(C)=CCCC(C)=CCON=C1C[C@@H](O)[C@@H](O)[C@@H]2[C@@H]3C(=O)N(Cc4ccc5c(c4)OCO5)C(=O)[C@@H]3CC[C@H]12
-0.251
O=C1[C@H]2[C@H]3[C@H](O)[C@H](O)CC(=NO[C@@H]4O[C@H](CO)[C@@H](O)[C@H](O)[C@H]4O)[C@@H]3CC[C@H]2C(=O)N1c1cccc(Oc2ccccc2)c1
0.0506
CC(CCN1CCc2nc(-c3ccccc3)c(-c3ccccc3)cc2C1)=NO[C@@H](C)c1cc(-c2c(C)cc(C)cc2C)no1
-3.2
CC(C)CON=C1[C@H]2CCn3c(=O)n(C)c(=O)n3[C@H]2[C@H](O)[C@@H]2O[C@H]12
-0.6
COc1ccc(O[C@H]2C=C[C@@H](c3ccccc3)O[C@@H]2COC(=O)CCC(C)=NOC[C@@H](O)COCc2ccco2)cc1
-0.244

Sourced from PubChem BioAssay
